Here the recorded No. of surviving mice/No. of treated mice is given for each entry.
- Tested on: mice
- ASSAY PROCEDURE: Systemic toxicity of trans and cis isomers of cyclolignans in mice
- EXPERIMENTAL PARAMETERS: Day 3; 28 mg/kg/d intraperitoneally daily; nude mice

Examples with their reported No. of surviving mice/No. of treated mice follow.
{"columns": ["MOLECULE", "TARGET", "MEASURED RESULT"],
 "data": [
  ["COc1cc([C@@H]2c3cc4c(cc3C[C@H]3COC(=O)[C@@H]32)OCO4)cc(OC)c1OC [Deoxypodophyllotoxin, reference compound]", "mice", "0/6"],
  ["COc1cc([C@@H]2c3cc4c(cc3[C@H](O)[C@H]3COC(=O)[C@H]23)OCO4)cc(OC)c1OC [Podophyllotoxin, reference compound]", "mice", "0/6"],
  ["COc1cc([C@@H]2c3cc4c(cc3[C@H](O)[C@H]3COC(=O)[C@@H]23)OCO4)cc(OC)c1OC", "mice", "6/6"]
]}

// moving on: another record for No. of surviving mice/No. of treated mice
input: Quick check: No. of surviving mice/No. of treated mice of "COc1cc([C@@H]2c3cc4c(cc3C[C@H]3COC(=O)[C@H]32)OCO4)cc(OC)c1OC" ?
output: 6/6

* * *

- Test system: mice
- ASSAY PROCEDURE: Systemic toxicity of trans and cis isomers of cyclolignans in mice
- EXPERIMENTAL PARAMETERS: Day 2; 28 mg/kg/d intraperitoneally daily; nude mice
ENDPOINT NAME: No. of surviving mice/No. of treated mice

{"columns": ["MOLECULE", "MEASURED RESULT"],
 "data": [
  ["COc1cc([C@@H]2c3cc4c(cc3[C@H](O)[C@H]3COC(=O)[C@H]23)OCO4)cc(OC)c1OC [Podophyllotoxin, reference compound]", "0/6"],
  ["COc1cc([C@@H]2c3cc4c(cc3[C@H](O)[C@H]3COC(=O)[C@@H]23)OCO4)cc(OC)c1OC", "6/6"],
  ["COc1cc([C@@H]2c3cc4c(cc3C[C@H]3COC(=O)[C@H]32)OCO4)cc(OC)c1OC", "6/6"]
]}

input: Quick check: No. of surviving mice/No. of treated mice of COc1cc([C@@H]2c3cc4c(cc3C[C@H]3COC(=O)[C@@H]32)OCO4)cc(OC)c1OC [Deoxypodophyllotoxin, reference compound] ?
output: 4/6

* * *

- System: mice
- ASSAY PROCEDURE: Systemic toxicity of trans and cis isomers of cyclolignans in mice
- EXPERIMENTAL PARAMETERS: Day 1; 28 mg/kg/d intraperitoneally daily; nude mice
Here the recorded No. of surviving mice/No. of treated mice is given for each entry.

{"columns": ["COMPOUND", "MEASURED RESULT"],
 "data": [
  ["COc1cc([C@@H]2c3cc4c(cc3[C@H](O)[C@H]3COC(=O)[C@H]23)OCO4)cc(OC)c1OC [Podophyllotoxin, reference compound]", "2/6"],
  ["COc1cc([C@@H]2c3cc4c(cc3C[C@H]3COC(=O)[C@@H]32)OCO4)cc(OC)c1OC [Deoxypodophyllotoxin, reference compound]", "6/6"],
  ["COc1cc([C@@H]2c3cc4c(cc3[C@H](O)[C@H]3COC(=O)[C@@H]23)OCO4)cc(OC)c1OC", "6/6"]
]}

// moving on: another record for No. of surviving mice/No. of treated mice
input: Quick check: No. of surviving mice/No. of treated mice of "COc1cc([C@@H]2c3cc4c(cc3C[C@H]3COC(=O)[C@H]32)OCO4)cc(OC)c1OC" ?
output: 6/6

Sourced from patent US20110178050A1
